Provide the reported IC50 of each item.
system: TAG; assay: TAG lipid buildup inhibition with viability readout – cell-based, panel, Nile Red and DAPI fluorescence, H9c2, dose response (AID 651630); conditions: H9c2 cells, Nile Red TAG fluorescence, oleic acid, mean of runs;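 also: cells exposed to compound overnight before fixation and staining; hits lower the Nile Red lipid signal and are scored as TAG inhibitors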
The source made the active and inactive calls.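 The calls were made as follows: active = lipid-stain IC50 at or below a set limit, with nuclear-stain toxicity IC50 at least five times higher; inactive = the rest.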

QUERY: # get_value(readout='IC50', item= `CC(C)(C)NC(=O)C[C@H]1C[C@H](C(=O)N2CCCCC2)[C@@]2(CCc3ccccc3)c3[nH]c4ccc(Cl)cc4c3CCN2C1=O` )
RESULT: 17.7 µM (inactive)

QUERY: So what does the record say about IC50 for `CNCCCN1c2ccccc2CCc2ccccc21` ?
RESULT: > 25 µM (inactive)

QUERY: Requested field: IC50. Item: `Cc1cc(N/N=C/c2cccc(Cl)c2)nc(-n2nc(C)cc2C)n1`
RESULT: > 25 µM (inactive)

QUERY: Record request: IC50 value, item `c1ccc(Oc2nc(-c3ccccn3)nc3ccccc23)cc1`
RESULT: > 25 µM (inactive)

QUERY: // returns reported IC50 for input `NC(=O)N/N=C/c1c(Sc2nnnn2-c2ccccc2)nc2ccccn2c1=O`
RESULT: 10.7 µM

QUERY: I'd like to know its IC50. The compound in question is COc1cc(CNC(=O)Nc2nc(C(N)Cc3ccc(Cl)cc3)cs2)cc(OC)c1OC (stereo not given)
RESULT: 3.91 µM

QUERY: Returns the measured IC50 for the input compound. Input: `CC(C)(C)OC(=O)N(CCc1ccccc1)Cc1ccccc1OCc1cccc(NC(=O)/C=C/c2ccccc2)c1`
RESULT: 15 µM

QUERY: What value of IC50 has been recorded for this entry: `c1ccc(OCCNc2nc(NCC3CC3)nc3cc(-c4ccccc4)sc23)cc1`
RESULT: 12.8 µM

QUERY: I am curious: what IC50 value has been reported for COc1cc2c(c(OC)c1OC)-c1ccc(O)cc1C(NC(C)=O)CC2 (stereo not given) ?
RESULT: > 25 µM (inactive)

QUERY: // IC50 lookup, key: `Cc1ccc2oc(NC3=NC4(CCCC4)C4=C(CCCC4=O)N3)nc2c1`
RESULT: 7.66 µM

====

system: TAG; assay: TAG lipid buildup inhibition with viability readout – cell-based, panel, Nile Red and DAPI fluorescence, H9c2, dose response (AID 651630); details: H9c2 cells, Nile Red TAG fluorescence, oleic acid, mean of runs;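 also: cells exposed to compound overnight before fixation and staining; hits lower the Nile Red lipid signal and are scored as TAG inhibitors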
Active and inactive are the calls of the source.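 Rule for the calls: active = lipid-stain IC50 at or below a set limit, with nuclear-stain toxicity IC50 at least five times higher; inactive = the rest.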
Choose one outcome from this list and give only that: true (1) = active, false (0) = inactive

QUERY: For CN(C)CCCNC(=O)CC1C[C@H](C(=O)N2CCCCC2)[C@@]2(CCc3ccccc3)c3[nH]c4ccccc4c3CCN2C1=O (stereo not given in full) , what call appears in the results of this test?
RESULT: false (0)

QUERY: Test call for this molecule, please: `COc1ccc(NS(=O)(=O)c2cccc(C(=O)N/N=C/c3cn(-c4ccccc4)nc3-c3ccccc3)c2)cc1`
RESULT: true (1)

QUERY: Each molecule tested received a call. Report the one for `Cc1ccc(Oc2ccc(S(=O)(=O)N3CCOCC3)cc2C(N)=O)c(-n2nc3ccccc3n2)c1` .
RESULT: false (0)

QUERY: Record request — test call for `Cc1nn(-c2ccccc2)c2c1CC(=O)Nc1ccccc1-2`
RESULT: true (1)

QUERY: Could you check what this test reported for `CC(C)N1CSC(=S)N(Cc2ccccc2)C1` ?
RESULT: false (0)

QUERY: Test call for this molecule, please: `Cn1nnc2c[n+](CC(=O)c3ccc(Cl)cc3)cc(Br)c21`
RESULT: true (1)

QUERY: For `O=C(Nc1ccc(-c2csc(Nc3cccc(C(F)(F)F)c3)n2)cc1)c1cc([N+](=O)[O-])cc(C(F)(F)F)c1` , what call appears in the results of this test?
RESULT: true (1)

QUERY: Name the outcome recorded for CC1(C)CC(=O)C2=C(C1)Oc1nc3ccccc3cc1C2C(C#N)C#N (stereo not given) in the assay.
RESULT: false (0)

QUERY: Give the logged outcome of this assay for the following molecule: `Cc1ccc(NC(=O)CSc2nc3ccc(Nc4nc(N5CCOCC5)nc(N5CCOCC5)n4)cc3s2)cc1`
RESULT: true (1)

QUERY: What did the test return for `COc1ccc(-c2csc(NC(=S)NC(=O)/C=C/c3ccco3)n2)cc1Br` ?
RESULT: true (1)

QUERY: Which outcome was assigned to `COCCCn1c(N)c(C(=O)Nc2ccccc2)c2nc3ccccc3nc21` in this test?
RESULT: true (1)

QUERY: Fill in: this test's call for `CCOc1ccc(CCNC(=O)CN(C)S(=O)(=O)c2cccc3nsnc23)cc1OCC` is ___
RESULT: false (0)

QUERY: Kindly provide the recorded test outcome for the following molecule: Cc1cccc2sc(NC(=O)C3CCCN(S(=O)(=O)c4cccc5nonc45)C3)nc12 (stereo not given)
RESULT: true (1)

QUERY: Given `Cc1ccccc1NC(=O)CSc1nc(Nc2ccccc2)nc(N2CCOCC2)n1` , state the outcome it received in this test.
RESULT: true (1)

QUERY: Short answer needed: outcome of this test for `Nc1cc2c(cc1Br)[nH]c(=O)c1ccccc12` ?
RESULT: true (1)

QUERY: Check the results log: what was the call for `O=C1CCCC2=C1C1(CCCC1)N=C(Nc1nc3cc(-c4ccccc4)ccc3o1)N2` ?
RESULT: false (0)

QUERY: Could you kindly confirm the outcome this assay logged for `Nc1ccccc1Nc1cccc(C(F)(F)F)c1` ?
RESULT: true (1)

QUERY: Call for entry Cc1ccc2c(=O)n3c(nc2c1)C(Cc1ccc(O)cc1)NC(=O)c1cc2ccccc2cc1-3 (stereo not given) :
RESULT: false (0)

QUERY: Just curious, what result did `Cc1cccc(Nc2nc(NCc3ccco3)nc(N3CCOCC3)n2)c1` get here?
RESULT: false (0)

QUERY: Hi, sorry to bother you, what did the test record for `O=C(CCC1CCCCC1)NCCN1C2=NC[C@@H](Cc3ccccc3)N2C[C@H]1Cc1ccc(O)cc1` ?
RESULT: false (0)

====

system: TAG; assay: TAG lipid buildup inhibition with viability readout – cell-based, panel, Nile Red and DAPI fluorescence, H9c2, dose response (AID 651630); details: H9c2 cells, Nile Red TAG fluorescence, oleic acid, mean of runs;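 also: cells exposed to compound overnight before fixation and staining; hits lower the Nile Red lipid signal and are scored as TAG inhibitors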
Activity calls are given as the source filed them.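 The calls were made as follows: active = lipid-stain IC50 at or below a set limit, with nuclear-stain toxicity IC50 at least five times higher; inactive = the rest.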
Respond only with the outcome that fits, drawn from active, inactive

QUERY: Fill in: this test's call for NC(=O)c1cccc(-c2ccnc3c2CC(C(=O)NCc2ccccc2)O3)c1 (centres undefined) is ___
RESULT: inactive

QUERY: Answer briefly: the call reported for `Nc1c(C(=O)NC2CCCC2)c2nc3ccccc3nc2n1/N=C/c1cccnc1` in this assay.
RESULT: inactive

QUERY: Assay result, entry `C=C1c2nc3ccccc3n2C=C(c2ccc(C)cc2)N1c1ccccc1` — outcome?
RESULT: inactive

QUERY: Which outcome did this test record for the compound `Cc1ccc2[nH]c(-c3ccccc3)cc(=O)c2c1` ?
RESULT: inactive

QUERY: Short answer needed: outcome of this test for CCN1CCN(c2ncc3c(n2)CC(c2cc(OC)c(OC)c(OC)c2)CC3=O)CC1 (centres undefined) ?
RESULT: inactive

QUERY: For this compound, state the assay outcome: `COc1cccc(/C=C/C(=C2/C(=O)N(c3ccccc3)N=C2C)c2ccc(C)cc2)c1OC`
RESULT: active

QUERY: Please share the test call associated with Cc1cc(C(=O)COC(=O)c2ccc([N+](=O)[O-])o2)c(C)n1CC1CCCO1 (centres undefined) .
RESULT: inactive

QUERY: Each compound tested received a call. Report the one for `COCCN(Cc1ccccc1)C(=O)C1CCN(C(=O)Nc2ccccc2)CC1` .
RESULT: inactive

QUERY: Short answer needed: outcome of this test for `COc1ccc(CNC(=O)C[C@H]2C[C@H](C(=O)N3CCCCC3)[C@@]3(CCc4ccccc4)c4[nH]c5ccc(Cl)cc5c4CCN3C2=O)cc1OC` ?
RESULT: active

====

test system: TAG; experiment: TAG lipid buildup inhibition with viability readout – cell-based, panel, Nile Red and DAPI fluorescence, H9c2, dose response (AID 651630); settings: H9c2 cells, Nile Red TAG fluorescence, oleic acid, mean of runs;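 also: cells exposed to compound overnight before fixation and staining; hits lower the Nile Red lipid signal and are scored as TAG inhibitors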
The source made the active and inactive calls.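 The calls were made as follows: active = lipid-stain IC50 at or below a set limit, with nuclear-stain toxicity IC50 at least five times higher; inactive = the rest.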
Write down one outcome, taken from active, inactive

QUERY: Can you look up the reported call for COc1ccc2[nH]c3c(c2c1)CCN1C(=O)C(CC(=O)NC/C=C(\C)CCC=C(C)C)C[C@H](C(=O)N(C(C)C)C(C)C)[C@@]31C (some centres undefined) for me?
RESULT: inactive

QUERY: So what was the verdict on `COc1cc(NC(=O)c2cc([N+](=O)[O-])ccc2NC(=O)CN2CCN(c3ccccn3)CC2)cc(OC)c1` in this test?
RESULT: active

QUERY: Please state the recorded outcome for this compound: `CCOC(=O)Cc1ccc(Nc2nc3cc(-c4sccc4C)sc3c(=O)n2C)cc1`
RESULT: inactive

QUERY: // return assay outcome for `COc1ccc(-c2cc(NC=O)c3ncc(-c4cc(OC)c(OC)c(OC)c4)n3c2)c(OC)c1`
RESULT: inactive

QUERY: What did this assay record as the result for CCCC1O[C@@H]2C[C@H]3[C@@H]4CCC5=CC(=O)C=C[C@]5(C)[C@H]4[C@@H](O)C[C@]3(C)[C@]2(C(=O)CO)O1 (some centres undefined) ?
RESULT: active

QUERY: Could you kindly confirm the outcome this assay logged for `COCCNc1nc(NCc2ccc(NC(C)=O)cc2)c2sc(-c3ccccc3)cc2n1` ?
RESULT: inactive

QUERY: How did this test come out for `Cc1ccc(NC(=O)Cn2nnc(-c3ccccc3NC(=O)c3cccs3)n2)cc1` ?
RESULT: active

QUERY: Hey, what did the test say about `CCN(CC)c1ccc(/C=C2\CCC(/C=C(/C#N)C(=O)Nc3ccccc3F)=C2N2CCOCC2)cc1` ?
RESULT: active

QUERY: So what was the verdict on `COc1ccc(CC(=O)Nc2ccc(-c3ccc4nnc(C)n4n3)cc2)cc1OC` in this test?
RESULT: inactive

Reference source for all entries: PubChem BioAssay AID651630
